# protocol_summary: Downregulation of ER expression in human MCF7 cells incubated for 48 hrs by ELISA
# Format: functional, cell-based
# assay_context: MCF7, 48 h
observable: EC50 (nM)
Please give a number only; it is taken to be in nM.

Please report EC50 for the following compound: CCNCCc1ccc(CN(CC)c2cc(OC)ccc2[C@@H]2CCc3cc(O)ccc3C2)cc1
0.6

---

# Test system: Ishikawa
# protocol_summary: Antiproliferative activity against human Ishikawa cells assessed as inhibition of cell growth incubated for 48 hrs by MTT assay
# Type: functional, cell-based
observable: IC50 (µM)
Please give a number only; it is taken to be in µM.

Please report IC50 for the following compound: O=C(/C=C\c1ccc(-c2nc(-c3ccc(O)cc3)nc(-c3ccc(O)cc3)n2)cc1)NCCCO
3.11
